Conditions: buffer; pH 7.4; 200.0 µM
readout label: solubility kinetic

Consider the reported solubility kinetic for these compounds:
{"compound": "CNc1nc2c(c(=O)n(C)c(=O)n2C)n1CCCc1ccccc1", "solubility kinetic": "> 49.1 µg/mL"}
{"compound": "O=C(Cc1ccsc1)Nc1ccccc1F", "solubility kinetic": "> 35.3 µg/mL"}
{"compound": "COc1ccc(CCN2Cc3c(N)cccc3C2=O)cc1OC", "solubility kinetic": "> 46.9 µg/mL"}
{"compound": "CCc1ccccc1NC(=O)c1cnn(-c2ccccc2)c1C", "solubility kinetic": "> 45.8 µg/mL"}
{"compound": "CCCNC(=O)Cn1c(=O)n(C)c2ccccc21", "solubility kinetic": "> 37.1 µg/mL"}
{"compound": "CCc1nc2ccccc2n1CC(=O)NC1CCS(=O)(=O)C1 (stereo not given)", "solubility kinetic": "> 48.2 µg/mL"}
{"compound": "Cc1cccc(CN2C3=NCCCN3c3ccccc32)c1.Cl", "solubility kinetic": "> 47.1 µg/mL"}
{"compound": "O=C(CN1CCN(Cc2ccccc2)CC1)NCc1ccc(Cl)cc1", "solubility kinetic": "> 53.7 µg/mL"}

Given Cc1ccc([N+](=O)[O-])c(NC(=O)COC(=O)C2CC3CCCC(C2)C3=O)c1C (stereo not given) , state its recorded solubility kinetic. > 58.3 µg/mL

Also, `CCCc1cc(C(=O)Nc2ccc(OC)cc2[N+](=O)[O-])cs1` please. < 0.3 µg/mL

Also, COC(=O)C(C(C)C)N1CCc2c(C)nc3c(C#N)cnn3c21 (stereo not given) please. > 47 µg/mL
